All figures here come from ChEMBL document CHEMBL1148869.

System: Eimeria tenella
Assay: Anticoccidial activity against Eimeria tenella infected Chick assessed as reduction in oocyst production at 50 ppm after 7 days
Assay type: functional
Design: scale not given: the % may be the effect or the level left
Reported Activity by item:

Known Activity results, listed for orientation:
Which Activity value is on record for C[C@H](Nc1nccc(-c2c(-c3ccc(F)cc3)nc3cc(CN(C)C(CO)CO)ccn23)n1)c1ccccc1 ?
>80%

Follow-up item: CCN(C)Cc1ccn2c(-c3ccnc(N[C@@H](C)c4ccccc4)n3)c(-c3ccc(F)cc3)nc2c1
>80%

Follow-up item: C[C@H](Nc1nccc(-c2c(-c3ccc(F)cc3)nc3cc(CN(C)CC(=O)N4CCC4)ccn23)n1)c1ccccc1
<50%

Follow-up item: CCOC(=O)N1CCN(Cc2ccn3c(-c4ccnc(N[C@@H](C)c5ccccc5)n4)c(-c4ccc(F)cc4)nc3c2)CC1
<50%

Follow-up item: C[C@H](Nc1nccc(-c2c(-c3ccc(F)cc3)nc3cc(CN(C)CCN4CCC4)ccn23)n1)c1ccccc1
>80%

Here is another compound to look at.
Which Activity value is on record for C[C@H](Nc1nccc(-c2c(-c3ccc(F)cc3)nc3cc(CN(C)CC(=O)N4CCCC4)ccn23)n1)c1ccccc1 ?
>80%
